Cited source: patent US7217730B2

# Measurement Target: NS5B from the BK strain (genotype 1b) (Hepatitis C virus genotype 1b)
# Construct: NS5B from the BK strain (genotype 1b) is expressed in E. coli as a protein in which the 21 C-terminal amino acids are replaced; made in house; host or cells: E. coli
# Procedure Details: Hepatitis C polymerase inhibition, NS5B BK strain, 33P-GTP filter assay
# Assay type: biochemical
# Setup Conditions: Table 1A; NS5B BK strain; read-out: HCV pol BK IC50
pIC50: −log10 of the molar value.
Recorded Metric: pIC50

Cc1cc(F)c2[nH]c3c(c2c1C#N)CCOC3(CC(=O)O)c1ccccc1 (centres unmarked) = < 5.00
CCCC1(CC(=O)O)OCCc2c1[nH]c1cccc(-c3ccccc3C(F)(F)F)c21 (centres unmarked) = < 4.70
CCCC1(CC(=O)O)OCCc2c1[nH]c1c(F)cc(F)c(Br)c21 (centres unmarked) = 6.70

// each listed molecule needs a value for pIC50
1. Cc1cc(Cl)c2[nH]c3c(c2c1C#N)CCOC3(CC(=O)O)C(C)C (centres unmarked)
2. CCCC1(CC(=O)O)OCCc2c1[nH]c1c(F)ccc(-c3ccc(C(F)(F)F)cc3)c21 (centres unmarked)
3. Cc1cc(F)c(C#N)c2c3c([nH]c12)C(CC(=O)O)(c1ccc(C(=O)O)cc1)OCC3 (centres unmarked)

OUT:
1: < 5.30; 2: 5.05; 3: 4.75

// each listed molecule needs a value for pIC50
1. C/C=C/CCC1(CC(=O)O)OCCc2c1[nH]c1cccc(Cl)c21 (centres unmarked)
2. CCCC1(CC(=O)O)OCCc2c1[nH]c1c(-c3ccc(C(F)(F)F)cc3)cccc21 (centres unmarked)

OUT:
< 4.70
< 4.70

---

# Measurement Target: BB7 (RNA-dependent RNA polymerase hepatitis C virus protein sequence derived from HCV replicon) (Hepatitis C virus genotype 1b, UniProt Q9WMX2)
# Sequence (Q9WMX2 2420-3010): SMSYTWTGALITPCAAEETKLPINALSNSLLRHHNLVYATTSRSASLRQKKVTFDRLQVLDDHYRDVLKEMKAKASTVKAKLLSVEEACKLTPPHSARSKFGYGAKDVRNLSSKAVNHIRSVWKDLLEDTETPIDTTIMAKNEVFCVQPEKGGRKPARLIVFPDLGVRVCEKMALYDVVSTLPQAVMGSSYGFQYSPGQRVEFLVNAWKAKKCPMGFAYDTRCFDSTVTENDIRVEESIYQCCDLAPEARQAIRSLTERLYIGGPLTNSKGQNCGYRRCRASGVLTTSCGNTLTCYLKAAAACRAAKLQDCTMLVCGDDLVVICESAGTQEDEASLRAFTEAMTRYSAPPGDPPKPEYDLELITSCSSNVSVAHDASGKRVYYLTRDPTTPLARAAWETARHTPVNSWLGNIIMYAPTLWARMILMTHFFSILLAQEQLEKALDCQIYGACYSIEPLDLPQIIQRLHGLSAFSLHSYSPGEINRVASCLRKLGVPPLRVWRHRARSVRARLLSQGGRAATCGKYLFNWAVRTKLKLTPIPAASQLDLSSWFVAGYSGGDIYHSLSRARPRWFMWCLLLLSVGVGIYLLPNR
IC50 under 2000 nM gets y, anything at or over 2000 nM gets n.

C=CCCC1(C(=O)O)OCCc2c1[nH]c1c(F)ccc(C#N)c21 (centres unmarked) = n
CC[C@@H](C)[C@@]1(CC(=O)O)OCCc2c1[nH]c1c(F)ccc(C#N)c21 (single isomer, unassigned) = n
CC[C@H](C)[C@@]1(CC(=O)O)OCCc2c1[nH]c1c(F)ccc(C#N)c21 [Example 315] = n
CC[C@H](C)[C@@]1(CC(=O)O)OCCc2c1[nH]c1c(F)ccc(C#N)c21 (racemic) [Example 313] = y
CCC(C)C1(CC(=O)O)OCCc2c1[nH]c1c(F)ccc(C#N)c21 (racemic) = n

IN: Would you kindly verify if IC50 of CC[C@H](C)C1(CC(=O)O)OCCc2c1[nH]c1c(C#N)ccc(C(F)(F)F)c21 (mixture of isomers) is strictly less than 2000 nM?
OUT: n

IN: Would you kindly verify if IC50 of CCCC1(CC(=O)O)OCCc2c1[nH]c1c(C)c(OCCF)cc(C#N)c21 (centres unmarked) is strictly less than 2000 nM?
OUT: y

IN: Would you kindly verify if IC50 of CCCC1(CC(=O)O)OCCc2c1[nH]c1c(C)c(OCc3ccccc3)cc(C#N)c21 (centres unmarked) is strictly less than 2000 nM?
OUT: y

---

For each of the compounds below, state its inhibition at 20 µM.
# Measurement Target: NS5B from the BK strain (genotype 1b) (Hepatitis C virus genotype 1b)
# Construct: NS5B from the BK strain (genotype 1b) is expressed in E. coli as a protein in which the 21 C-terminal amino acids are replaced; made in house; host or cells: E. coli
# Procedure Details: Hepatitis C polymerase inhibition, NS5B BK strain, 33P-GTP filter assay
# Format: biochemical
# Setup Conditions: Table 1A; 20 μM compound; read-out: HCV pol % inh at 20 μM
Numbers only, in %.

Study these solved cases before continuing.
CCCC1(CC(=O)O)OCCc2c1[nH]c1c(Cl)cc(Cl)c(Cl)c21 (stereo not drawn) [Example 156] = 88
CCCC1(CC(=O)O)OCCc2c1[nH]c1cccc(-c3ccco3)c21 (stereo not drawn) [Example 40] = 27
CC1(CC(=O)O)OCCc2c1[nH]c1cc(Cl)cc(Cl)c21 (stereo not drawn) [Example 114] = 57
CCCC1(CC(=O)O)OCCc2c1[nH]c1cccc(C#N)c21 (stereo not drawn) [Example 58] = 78

IN: Find the recorded inhibition at 20 µM belonging to Cc1cc(Cl)c2[nH]c3c(c2c1Br)CCOC3(C)CC(=O)O (stereo not drawn) [Example 173] and report it.
OUT: 19

---

# Measurement Target: NS5B from the BK strain (genotype 1b) (Hepatitis C virus genotype 1b)
# Construct: NS5B from the BK strain (genotype 1b) is expressed in E. coli as a protein in which the 21 C-terminal amino acids are replaced; made in house; host or cells: E. coli
# Procedure Details: Hepatitis C polymerase inhibition, NS5B BK strain, 33P-GTP filter assay
# Format: biochemical
# Setup Conditions: Table 1A; NS5B BK strain; read-out: HCV pol BK IC50
Recorded Metric: pIC50
Give bare numbers, as −log10 of the molar value.

CCCC1(CC(=O)O)OCCc2c1[nH]c1c(C)cc(F)c(C#N)c21 (stereo not shown) = 7.10

IN: Find the recorded pIC50 belonging to Cc1cc(F)c2[nH]c3c(c2c1Br)CCOC3(CC(=O)O)c1ccc(C(=O)O)cc1 (stereo not shown) and report it.
OUT: 6.66

---

For each of the molecules below, state its inhibition at 20 µM.
# Measurement Target: NS5B from the BK strain (genotype 1b) (Hepatitis C virus genotype 1b, UniProt P26663)
# Construct: NS5B from the BK strain (genotype 1b) is expressed in E. coli as a protein in which the 21 C-terminal amino acids are replaced; made in house; host or cells: E. coli
# Sequence (P26663 2420-2989): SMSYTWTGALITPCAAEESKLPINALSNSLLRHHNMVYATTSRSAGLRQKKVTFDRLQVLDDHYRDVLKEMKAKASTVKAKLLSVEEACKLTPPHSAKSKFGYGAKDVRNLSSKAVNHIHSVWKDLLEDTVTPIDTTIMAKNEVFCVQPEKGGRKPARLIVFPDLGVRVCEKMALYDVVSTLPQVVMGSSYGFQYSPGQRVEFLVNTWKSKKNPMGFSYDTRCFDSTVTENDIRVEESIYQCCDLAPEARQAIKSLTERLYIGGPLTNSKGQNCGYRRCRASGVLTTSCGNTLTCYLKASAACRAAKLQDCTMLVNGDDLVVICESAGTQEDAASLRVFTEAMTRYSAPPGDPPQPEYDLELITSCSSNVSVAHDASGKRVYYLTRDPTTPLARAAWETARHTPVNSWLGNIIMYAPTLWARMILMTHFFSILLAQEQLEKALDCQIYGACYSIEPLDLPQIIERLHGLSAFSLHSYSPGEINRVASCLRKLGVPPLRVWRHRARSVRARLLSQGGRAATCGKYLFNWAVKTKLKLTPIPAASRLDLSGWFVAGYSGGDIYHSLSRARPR
# Procedure Details: Hepatitis C polymerase inhibition, NS5B BK strain, 33P-GTP filter assay
# Assay type: biochemical
# Setup Conditions: Table 1A; 20 μM compound; read-out: HCV pol % inh at 20 μM
Numbers only, in %.

CCCC1(CC(=O)O)OCCc2c1[nH]c1c(C)ccc(C)c21 (stereo not drawn) = 40
CCCC1(CC(=O)O)OCCc2c1[nH]c1c(Cl)cc(C)c(Br)c21 (stereo not drawn) = 84
CCCCC1(CC(=O)O)OCCc2c1[nH]c1c(C)cc(F)c(C#N)c21 (stereo not drawn) = 88
CCC1(CC(=O)O)OCCc2c1[nH]c1c(F)cc(C)c(Br)c21 (stereo not drawn) = 77
O=C(O)CC1(c2ccoc2)OCCc2c1[nH]c1c(Cl)cc(Cl)c(Cl)c21 (stereo not drawn) = 73
O=C(O)CC1(c2ccccc2)OCCc2c1[nH]c1c(Cl)cc(Cl)cc21 (stereo not drawn) = 57
O=C(O)CC1(c2ccc(C(=O)O)cc2)OCCc2c1[nH]c1c(Cl)ccc(Cl)c21 (stereo not drawn) = 56
CCC1(CC(=O)O)OCCc2c1[nH]c1c(F)ccc(F)c21 (stereo not drawn) = 51
CCCC1(CC(=O)O)OCCc2c1[nH]c1c(Cl)cccc21 (stereo not drawn) = 69
COC(=O)CC1(CC(=O)O)OCCc2c1[nH]c1cccc(Cl)c21 (stereo not drawn) = 22

// each listed molecule needs a value for inhibition at 20 µM
1. O=C(O)CC1(c2ccoc2)OCCc2c1[nH]c1c(Cl)ccc(Cl)c21 (stereo not drawn)
2. CCCC1(CC(=O)O)OCCc2c1[nH]c1c(F)ccc(Cl)c21 (stereo not drawn)
3. CCCCC1(CC(=O)O)OCCc2c1[nH]c1c(F)cc(F)c(Br)c21 (stereo not drawn)
4. Cc1cc(F)c2[nH]c3c(c2c1C#N)CCOC3(CC(=O)O)c1ccc(C(=O)O)cc1 (stereo not drawn)
5. CC(C)C1(CC(=O)O)OCCc2c1[nH]c1c(Cl)ccc(C(F)(F)F)c21 (stereo not drawn)

OUT:
[62, 82, 93, 74, 78]

// each listed molecule needs a value for inhibition at 20 µM
1. CCCC1(CC(=O)O)OCCc2c1[nH]c1c(C)ccc(F)c21 (stereo not drawn)
2. CCCCC1(CC(=O)O)OCCc2c1[nH]c1c(C)cc(F)c(Br)c21 (stereo not drawn)
3. CCCCC1(CC(=O)O)OCCc2c1[nH]c1c(Cl)cc(C)c(C#N)c21 (stereo not drawn)
4. Cc1cc(F)c(Br)c2c3c([nH]c12)C(CC(=O)O)(C(C)C)OCC3 (stereo not drawn)
5. CC(C)C1(CC(=O)O)OCCc2c1[nH]c1c(Br)ccc(Br)c21 (stereo not drawn)

OUT:
[79, 94, 69, 82, 81]

// each listed molecule needs a value for inhibition at 20 µM
1. O=C(O)CC1(c2ccc(C(=O)O)cc2)OCCc2c1[nH]c1c(Cl)cc(Cl)cc21 (stereo not drawn)
2. CCCCC1(CC(=O)O)OCCc2c1[nH]c1c(Cl)cccc21 (stereo not drawn)
3. CCCC1(CC(=O)O)OCCc2c1[nH]c1c(Cl)ccc(C(F)(F)F)c21 (stereo not drawn)
4. CCCC1(CC(=O)O)OCCc2c1[nH]c1c(F)ccc(-c3ccccc3)c21 (stereo not drawn)
5. C/C=C/CCC1(CC(=O)O)OCCc2c1[nH]c1c(Br)cccc21 (stereo not drawn)
6. Cc1cc(F)c(C#N)c2c3c([nH]c12)C(C)(CC(=O)O)OCC3 (stereo not drawn)
7. CCCC1(CC(=O)O)OCCc2c1[nH]c1c(Cl)cc(Cl)cc21 (stereo not drawn)
8. Cc1cc(F)c2[nH]c3c(c2c1Br)CCOC3(CC(=O)O)c1ccccc1 (stereo not drawn)

OUT:
1: 71; 2: 29; 3: 93; 4: 34; 5: 18; 6: 34; 7: 89; 8: 4

// each listed molecule needs a value for inhibition at 20 µM
1. CC1(CC(=O)O)OCCc2c1[nH]c1c(Cl)cc(Cl)cc21 (stereo not drawn)
2. CCC1(CC(=O)O)OCCc2c1[nH]c1c(C)cc(F)c(Br)c21 (stereo not drawn)
3. CC1(CC(=O)O)OCCc2c1[nH]c1c(Cl)cc(Cl)c(Cl)c21 (stereo not drawn)
4. CCCC1(CC(=O)O)OCCc2c1[nH]c1c(F)ccc(-c3ccc(C)cc3)c21 (stereo not drawn)
5. CCCC1(CC(=O)O)OCCc2c1[nH]c1cccc(-c3cccc(OC)c3)c21 (stereo not drawn)

OUT:
[32, 83, 22, 47, 15]
